Measured GI50 values are reported for all entries that follow.
- Test system: COLO 205 colon
- assay.protocol: NCI tumour cell line growth inhibition, 48 h

# molecule `COc1cc(OC)c(C(=O)/C=C/c2cccc(C(F)(F)F)c2)c(OC)c1` ; its GI50 = 1060 nM

###

Measured TGI values are reported for all entries that follow.
- Tested on: UO-31 renal
- assay.protocol: NCI tumour cell line growth inhibition, 48 h

Example cases with answers are listed next.
molecule=O=C1c2ccccc2C(=O)C1(O)c1c[nH]c2ccccc12 measured_result="> 100 µM"
molecule=COc1ccc(/C=C/c2c(C(=O)/C=C/c3ccccc3)c(C)nc3ccccc23)cc1 measured_result="2.54 µM"
molecule="OCC1OC(n2cnc3c2NC=NC[C@H]3O)C(Cl)C1O (stereo not given in full)" measured_result="> 100 µM"
molecule="CC(CC[C@@]1(C)C(=O)CCC2O[C@]21C)[C@H]1C[C@@H](c2ccoc2)OC1=O (stereo not given in full)" measured_result="35.2 µM"
molecule="CCCCCCCCCCCC(=O)OCC(C[As](=O)(O)O)OC(=O)CCCCCCCCCCC (stereo not given)" measured_result="17.4 µM"
molecule="CC(=O)C1Cn2c(nc3ccccc32)C[Se]1 (stereo not given)" measured_result="8.46 µM"
molecule=COc1cc(OC)c2c(C)cc(=O)oc2c1 measured_result="79.5 µM"
molecule=Nc1nc(Nc2cccnc2)sc1C(=O)c1ccccc1F measured_result="> 26.5 µM"
molecule=S=c1ssc(N2CCOCC2)c1Cl measured_result="> 100 µM"
molecule=CC1=[N+]([O-])c2ccccc2C(=O)C1=O measured_result="> 100 µM"

Now look at this one.
# molecule CC1CC2=C(S(=O)(=O)c3ccccc3)CC(S(=O)(=O)c3ccccc3)(S(=O)(=O)c3ccccc3)CC21 (stereo not given) ; its TGI = > 100 µM

###

- Tested on: MOLT-4 leukemia
- assay.protocol: NCI tumour cell line growth inhibition, 48 h
measurement.label: TGI

Example cases with answers are listed next.
compound=Nc1nc(-[n+]2ccc(-c3ccncc3)cc2)nc(Cl)c1Cl tested_target="MOLT-4 leukemia" measured_result="37.2 µM"
compound="CCCCCCCCCCCCCCCC(=O)OCC(C[As](=O)(O)O)OC(=O)CCCCCCCCCCCCCCC (centres undefined)" tested_target="MOLT-4 leukemia" measured_result="> 100 µM"
compound=CCO/C=N\C1=C(C#N)SC2=N/C(=C\c3ccc(OC)cc3)C(=O)N21 tested_target="MOLT-4 leukemia" measured_result="> 100 µM"
compound=Nc1ccccc1/C(O)=C1/CCOC1=O tested_target="MOLT-4 leukemia" measured_result="> 100 µM"
compound=COCC[C@H]1CCC/C=C/[C@@H]2C[C@H](O)C[C@H]2[C@H](O)/C=C/C(=O)O1 tested_target="MOLT-4 leukemia" measured_result="> 100 µM"

# compound CC(=O)O[C@H]1C(=O)[C@@]2(C)C(C(OC(=O)c3ccccc3)[C@]3(O)CC(OC(=O)C(O)C(NC(=O)c4ccc(C(F)(F)F)cc4)c4ccccc4)C(C)=C1C3(C)C)[C@]1(OC(C)=O)CO[C@@H]1C[C@@H]2O (some centres undefined) ; its TGI = 7.39 µM

# compound `O=c1cc(N2CCCC2)[nH]c(=O)n1-c1cccc(Cl)c1` ; its TGI = > 100 µM

# compound `N#C[C@@H](c1ccccn1)c1ncccc1[N+](=O)[O-]` ; its TGI = > 100 µM

# compound `S=c1ssc(N2CCOCC2)c1Cl` ; its TGI = > 100 µM

# compound `COC(=O)Nc1nc2ccc(S(=O)(=O)SC)cc2[nH]1` ; its TGI = > 100 µM

# compound CCOC1=NC(O)c2cccn2-c2sccc21 (centres undefined) ; its TGI = > 100 µM

# compound CC1S/C(=N\N=C2/C(=O)Nc3ccc(Br)cc32)N(C2CCCCC2)C1=O (centres undefined) ; its TGI = > 100 µM

# compound `C/C(=N\Nc1ccc(Cl)cn1)c1ccc2ccccc2n1` ; its TGI = > 100 µM

# compound `Cc1ccc(S(=O)(=O)N/N=C2/CCCOC2)cc1` ; its TGI = > 100 µM

# compound `COc1ccc(CN2CC(C)(C)C2=O)c(OC)c1` ; its TGI = > 100 µM

# compound `Nc1nc(-c2ccccc2)cc(-c2ccc(OCc3ccccc3)cc2O)n1` ; its TGI = > 100 µM

# compound `O=C(c1cccs1)N1CCc2ccccc2C1` ; its TGI = > 100 µM

# compound `Clc1ccc(C[P+](c2ccccc2)(c2ccccc2)c2ccccc2)c(Cl)c1` ; its TGI = 18.1 µM

# compound `CCN(CC)CCSc1c2cc(OC)ccc2nc2ccc(OC)cc12` ; its TGI = > 21.8 µM

# compound `CN(C(=O)Cc1cccc(N=C=S)c1)[C@H]1CCCC[C@@H]1N1CCCC1` ; its TGI = 29 µM

###

- Test system: MCF7 breast
- assay.protocol: NCI tumour cell line growth inhibition, 48 h
Measured TGI values are reported for all entries that follow.
Supply the numeric figure in µM, leaving out any unit text.

# molecule `CC1(C)C(=O)/C(=C\c2cccnc2)C[C@]2(C)[C@H]3CC[C@@H]4[C@H]5[C@H](C(=O)/C=C/c6cccnc6)CC[C@]5(C(=O)O)CC[C@@]4(C)[C@]3(C)CC[C@@H]12` ; its TGI = 10.7

# molecule `COC(=O)Nc1nc2ccc(S(=O)(=O)SC)cc2[nH]1` ; its TGI = 27

# molecule O=c1cc(NCC(O)CN2CCCC2)n(Cc2ccccc2)c(=O)n1Cc1ccccc1 (centres undefined) ; its TGI = 34.8

###

- System: HCC-2998 colon
- assay.protocol: NCI tumour cell line growth inhibition, 48 h
measurement.label: TGI

Example cases with answers are listed next.
molecule="O=C(NC(Cc1ccccc1)(Cc1ccc(O)cn1)C(=O)O)c1ccccc1 (configuration not stated)" measured_result="> 100 µM"
molecule="COC(=O)C(CC(=O)Nc1ccc(C)cc1)C(=O)C(=O)Nc1c(C(C)C)cccc1C(C)C (configuration not stated)" measured_result="> 100 µM"
molecule=CCOC(=O)/C(C)=C(/O)C(=O)OCC measured_result="> 100 µM"
molecule="COC(=O)CC1N=C(NC#N)N(CCc2c[nH]c3ccccc23)C1=O (configuration not stated)" measured_result="> 100 µM"
molecule=COc1ccc2[nH]c3c4[nH]c5ccc(OC)cc5c4c4c(c3c2c1)C(=O)NC4=O measured_result="> 25 µM"
molecule="CC(=O)O[C@H]1CCC2[C@@H]3CC[C@]4(C)CC(=O)C=C[C@]4(C)C3CC[C@@]21C (some centres not stated)" measured_result="> 88.5 µM"

Measured TGI for this entry `O=[N+]([O-])c1ccc(S(=O)(=O)n2c3ccc(Br)cc3c3nc4ccccc4nc32)cc1` on HCC-2998 colon: > 100 µM

###

- Tested on: A549 NSCLC
- assay.protocol: NCI tumour cell line growth inhibition, 48 h
Measured TGI values are reported for all entries that follow.

# compound `[N-]=[N+]=C1C(=O)NN=C1c1ccccc1` ; its TGI = > 100 µM

# compound CC1=CCC(O)C=CC(C)C(O)C(C)C=C(C)C(=O)c2c(O)c(C)cc3c2C(=O)C(N)=C(NC(=O)/C=C\C=C/C=CC(C)C(O)CC1=O)C3=O (centres undefined) ; its TGI = > 100 µM

# compound C=CCCC1(CC(Sc2ccccc2)P(=O)(c2ccccc2)c2ccccc2)OCCO1 (centres undefined) ; its TGI = > 10 µM

# compound `Cn1c([C@H](C#N)c2ncccc2[N+](=O)[O-])nc2ccccc21` ; its TGI = > 100 µM

###

Measured TGI values are reported for all entries that follow.
- System: U251 CNS
- assay.protocol: NCI tumour cell line growth inhibition, 48 h

Example cases with answers are listed next.
entry_smiles=CCOC(=O)Cc1nc2cc(F)c(F)cc2[nH]c1=O measurement_label=TGI measured_result="> 100 µM"
entry_smiles=CCc1cc(Cc2cc(CC)c(NC(=O)C(=O)CC(=O)c3sc(-c4cccnc4)nc3C)c(CC)c2)cc(CC)c1NC(=O)C(=O)CC(=O)c1sc(-c2cccnc2)nc1C measurement_label=TGI measured_result="> 100 µM"

Now look at this one.
Measured TGI for this entry `COc1ccccc1CNCCCN1C(=O)c2ccc3c4c(ccc(c24)C1=O)C(=O)N(CCCNCCNCCCN)C3=O` on U251 CNS: 10.1 µM

###

- Test system: SK-MEL-2 melanoma
- assay.protocol: NCI tumour cell line growth inhibition, 48 h
measurement.label: TGI

Measured TGI for this entry `CC1=[N+]([O-])c2ccccc2C(=O)C1=O` on SK-MEL-2 melanoma: > 100 µM

###

- Test system: HCT-116 colon
- assay.protocol: NCI tumour cell line growth inhibition, 48 h
Measured TGI values are reported for all entries that follow.

compound="CCOP(=O)(OCC)C(c1ccc(F)cc1)N(C(=O)NC(F)(F)F)c1cccc(C(F)(F)F)c1 (stereo unspecified)" measured_result="> 100 µM"
compound="C[Si](C)(C)OC1CC(=O)OC1n1cc(F)c(=O)[nH]c1=O (stereo unspecified)" measured_result="> 69 µM"
compound=CCN(CC)CCSc1c2cc(OC)ccc2nc2ccc(OC)cc12 measured_result="3.42 µM"
compound=O=C(Nc1cc(Cl)c(Cl)cc1Cl)C(=O)C1C(=O)NC(=S)NC1=O measured_result="> 100 µM"

# compound `COc1ccc(C(=O)c2cc(C)c(OC)c(C)c2)cc1OC(=O)CCl` ; its TGI = > 100 µM

# compound `N#Cc1[nH]c(=O)n(-c2ccccc2)c1N` ; its TGI = > 10 µM

# compound Cc1ccc2c(c1)CC1(Cc3ccccc3C1=O)C2=O (stereo unspecified) ; its TGI = > 100 µM

# compound `Cc1ccc(S(=O)(=O)N/N=C2/CCCOC2)cc1` ; its TGI = > 100 µM

# compound `O=C(c1cccs1)N1CCc2ccccc2C1` ; its TGI = > 100 µM

# compound COC(=O)C(Cc1nc2ccccc2[nH]c1=O)C(NO)C(=O)Nc1c(Cl)cc([N+](=O)[O-])cc1Cl (stereo unspecified) ; its TGI = 47.9 µM

# compound `COc1ccc2[nH]c3c4[nH]c5ccc(OC)cc5c4c4c(c3c2c1)C(=O)NC4=O` ; its TGI = > 25 µM
